Entry source: the supplement of paper PMC10981050

Answer each item with its documented cell viability.
system: OCI-AML2; assay: cell viability relative to vehicle control; higher = less cytotoxic; settings: 10 µM; SRSF2 genotype: P95H/wt;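 note: after 48 h exposure read by CellTiter-Glo luminescence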
Counter-ions that a name gives are not always drawn.

Prompt: I'm curious: which cell viability was measured for c1ccc2c(Oc3nc(Nc4ccc(N5CCOCC5)cc4)c4ncn(C5CCCCC5)c4n3)cccc2c1 tested on OCI-AML2?;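 note: after 48 h exposure read by CellTiter-Glo luminescence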
Response: 58.9%

Prompt: And for CCN(CC)CCCC(C)Nc1c2ccc(Cl)cc2nc2ccc(OC)cc12 (centres undefined) [Quinacrine Dihydrochloride Dihydrate] ?
Response: 0.59%

Prompt: And for Nc1nc(Cl)nc2c1ncn2[C@@H]1O[C@H](CO)[C@@H](O)[C@@H]1F ?
Response: 5.47%

Prompt: And for O=C(NO)c1cnc(NC2(c3ccccc3)CC2)nc1 ?
Response: 0.88%
